Entry source: PubChem BioAssay AID504905

Consider the following molecules and their measured activation readings.
# Test system: 5-hydroxytryptamine receptor 5A (Homo sapiens)
# Assay: HTR5A agonists in cells, counter-screen for OPRM1-OPRD1 heterodimer agonist project, cell-based, luminescence (AID 504905);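 further: 0% = vehicle-treated cells and 100% = reference agonist response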
# Experimental parameters: HTR5A agonist counterscreen, at 9.3 µM, hits give high values
This is one part of the list.
Report only the number, with the unit % understood.

Take a look at these entries with their results.
C=C(C)COc1ccc(-c2n[nH]c(C)c2-c2ccccc2)c(O)c1: 5.34
CC(OC(=O)/C=C/c1ccccc1)C(=O)Nc1ccc(C(N)=O)cc1 (configuration not stated): 0.16
CN(C)C(CNC(=O)c1cc2ccccc2o1)c1ccccc1 (configuration not stated): 46.9

In: Please provide the recorded activation for CCCC(=O)NC(C)C(c1cccs1)N1CCN(c2ccccc2)CC1 (configuration not stated) , tested on 5-hydroxytryptamine receptor 5A (Homo sapiens).
Out: -1.26

In: Please provide the recorded activation for CCc1ccc(C(CNc2nc(C(F)(F)F)nc3ccccc23)N(C)C)cc1 (configuration not stated) , tested on 5-hydroxytryptamine receptor 5A (Homo sapiens).
Out: -2.05

In: Please provide the recorded activation for "N#C/C(=C(/O)COC(=O)COc1ccc(Cl)cc1)c1nc2ccccc2[nH]1" , tested on 5-hydroxytryptamine receptor 5A (Homo sapiens).
Out: 9.3

In: Please provide the recorded activation for "Cc1ccc(-n2c(SCC(=O)NCCC3=CCCCC3)nc3n[nH]c(C)c3c2=N)cc1Cl" , tested on 5-hydroxytryptamine receptor 5A (Homo sapiens).
Out: 1.57
